Tested on: MAC-T cells
Test Parameters: peptide 150 μg/mL, 24 h, WST-1, mean ± SD, three repeats
Where a SMILES comes first, the peptide text is derived from it.
Can you tell me Cell survival rate, MAC-T for the items I'm about to list?
Return type: number; implicit unit %.

Entry CC[C@H](C)[C@H](NC(=O)[C@H](CCCNC(=N)N)NC(=O)[C@@H](CCCNC(=N)N)NC(=O)[C@H](Cc1ccccc1)NC(=O)[C@H](CC(C)C)NC(=O)[C@H](CCCNC(=N)N)NC(=O)[C@@H](N)CCCNC(=N)N)C(=O)N[C@@H](CC(C)C)C(=O)N[C@@H](CCCNC(=N)N)C(=O)N[C@@H](Cc1c[nH]c2ccccc12)C(=O)N[C@@H](CC(C)C)C(N)=O [RW-BP100-5D] (HELM PEPTIDE1{R.R.L.F.[dR].R.I.L.R.W.L.[am]}$$$$V2.0) , Cell survival rate, MAC-T reported as 77.84

Entry CC[C@H](C)[C@H](NC(=O)[C@H](CCCNC(=N)N)NC(=O)[C@H](CCCNC(=N)N)NC(=O)[C@H](Cc1ccccc1)NC(=O)[C@H](CC(C)C)NC(=O)[C@H](CCCNC(=N)N)NC(=O)[C@@H](N)CCCNC(=N)N)C(=O)N[C@@H](CC(C)C)C(=O)N[C@H](CCCNC(=N)N)C(=O)N[C@@H](Cc1c[nH]c2ccccc12)C(=O)N[C@@H](CC(C)C)C(N)=O [RW-BP100-9D] (HELM PEPTIDE1{R.R.L.F.R.R.I.L.[dR].W.L.[am]}$$$$V2.0) , Cell survival rate, MAC-T reported as 92.50

Entry CC[C@H](C)[C@H](NC(=O)[C@H](CCCNC(=N)N)NC(=O)[C@H](CCCNC(=N)N)NC(=O)[C@H](Cc1ccccc1)NC(=O)[C@H](CC(C)C)NC(=O)[C@@H](CCCNC(=N)N)NC(=O)[C@@H](N)CCCNC(=N)N)C(=O)N[C@@H](CC(C)C)C(=O)N[C@@H](CCCNC(=N)N)C(=O)N[C@@H](Cc1c[nH]c2ccccc12)C(=O)N[C@@H](CC(C)C)C(N)=O [RW-BP100-2D] (HELM PEPTIDE1{R.[dR].L.F.R.R.I.L.R.W.L.[am]}$$$$V2.0) , Cell survival rate, MAC-T reported as 63.07

Entry CC[C@@H](C)[C@@H](NC(=O)[C@H](CCCNC(=N)N)NC(=O)[C@H](CCCNC(=N)N)NC(=O)[C@H](Cc1ccccc1)NC(=O)[C@H](CC(C)C)NC(=O)[C@H](CCCNC(=N)N)NC(=O)[C@@H](N)CCCNC(=N)N)C(=O)N[C@@H](CC(C)C)C(=O)N[C@@H](CCCNC(=N)N)C(=O)N[C@@H](Cc1c[nH]c2ccccc12)C(=O)N[C@@H](CC(C)C)C(N)=O [RW-BP100-7D] (HELM PEPTIDE1{R.R.L.F.R.R.[dI].L.R.W.L.[am]}$$$$V2.0) , Cell survival rate, MAC-T reported as 96.41

Entry CC[C@H](C)[C@H](NC(=O)[C@H](CCCNC(=N)N)NC(=O)[C@H](CCCNC(=N)N)NC(=O)[C@@H](Cc1ccccc1)NC(=O)[C@H](CC(C)C)NC(=O)[C@H](CCCNC(=N)N)NC(=O)[C@@H](N)CCCNC(=N)N)C(=O)N[C@@H](CC(C)C)C(=O)N[C@@H](CCCNC(=N)N)C(=O)N[C@@H](Cc1c[nH]c2ccccc12)C(=O)N[C@@H](CC(C)C)C(N)=O [RW-BP100-4D] (HELM PEPTIDE1{R.R.L.[dF].R.R.I.L.R.W.L.[am]}$$$$V2.0) , Cell survival rate, MAC-T reported as 92.68

---

Can you tell me Hemolytic rate, 100 μg/mL for the items I'm about to list?
Tested on: sheep red blood cells
Test Parameters: 100 μg/mL peptide; sheep red blood cells in PBS, 37°C, 1 h, OD576, relative to melittin; mean ± SD, three repeats
Where a SMILES comes first, the peptide text is derived from it.
Return type: number; implicit unit %.

Entry CC[C@H](C)[C@H](NC(=O)[C@H](CCCNC(=N)N)NC(=O)[C@H](CCCNC(=N)N)NC(=O)[C@H](Cc1ccccc1)NC(=O)[C@H](CC(C)C)NC(=O)[C@H](CCCNC(=N)N)NC(=O)[C@H](N)CCCNC(=N)N)C(=O)N[C@@H](CC(C)C)C(=O)N[C@@H](CCCNC(=N)N)C(=O)N[C@@H](Cc1c[nH]c2ccccc12)C(=O)N[C@@H](CC(C)C)C(N)=O [RW-BP100-1D] (HELM PEPTIDE1{[dR].R.L.F.R.R.I.L.R.W.L.[am]}$$$$V2.0) , Hemolytic rate, 100 μg/mL reported as 5.49

Entry CC[C@H](C)[C@H](NC(=O)[C@H](CCCNC(=N)N)NC(=O)[C@H](CCCNC(=N)N)NC(=O)[C@H](Cc1ccccc1)NC(=O)[C@H](CC(C)C)NC(=O)[C@H](CCCNC(=N)N)NC(=O)[C@@H](N)CCCNC(=N)N)C(=O)N[C@H](CC(C)C)C(=O)N[C@@H](CCCNC(=N)N)C(=O)N[C@@H](Cc1c[nH]c2ccccc12)C(=O)N[C@@H](CC(C)C)C(N)=O [RW-BP100-8D] (HELM PEPTIDE1{R.R.L.F.R.R.I.[dL].R.W.L.[am]}$$$$V2.0) , Hemolytic rate, 100 μg/mL reported as 1.38

Entry CC[C@@H](C)[C@@H](NC(=O)[C@H](CCCNC(=N)N)NC(=O)[C@H](CCCNC(=N)N)NC(=O)[C@H](Cc1ccccc1)NC(=O)[C@H](CC(C)C)NC(=O)[C@H](CCCNC(=N)N)NC(=O)[C@@H](N)CCCNC(=N)N)C(=O)N[C@@H](CC(C)C)C(=O)N[C@@H](CCCNC(=N)N)C(=O)N[C@@H](Cc1c[nH]c2ccccc12)C(=O)N[C@@H](CC(C)C)C(N)=O [RW-BP100-7D] (HELM PEPTIDE1{R.R.L.F.R.R.[dI].L.R.W.L.[am]}$$$$V2.0) , Hemolytic rate, 100 μg/mL reported as 1.11

Entry CC[C@H](C)[C@H](NC(=O)[C@@H](CCCNC(=N)N)NC(=O)[C@H](CCCNC(=N)N)NC(=O)[C@H](Cc1ccccc1)NC(=O)[C@H](CC(C)C)NC(=O)[C@H](CCCNC(=N)N)NC(=O)[C@@H](N)CCCNC(=N)N)C(=O)N[C@@H](CC(C)C)C(=O)N[C@@H](CCCNC(=N)N)C(=O)N[C@@H](Cc1c[nH]c2ccccc12)C(=O)N[C@@H](CC(C)C)C(N)=O [RW-BP100-6D] (HELM PEPTIDE1{R.R.L.F.R.[dR].I.L.R.W.L.[am]}$$$$V2.0) , Hemolytic rate, 100 μg/mL reported as 3.25

Entry CC[C@H](C)[C@H](NC(=O)[C@H](CCCNC(=N)N)NC(=O)[C@H](CCCNC(=N)N)NC(=O)[C@H](Cc1ccccc1)NC(=O)[C@@H](CC(C)C)NC(=O)[C@H](CCCNC(=N)N)NC(=O)[C@@H](N)CCCNC(=N)N)C(=O)N[C@@H](CC(C)C)C(=O)N[C@@H](CCCNC(=N)N)C(=O)N[C@@H](Cc1c[nH]c2ccccc12)C(=O)N[C@@H](CC(C)C)C(N)=O [RW-BP100-3D] (HELM PEPTIDE1{R.R.[dL].F.R.R.I.L.R.W.L.[am]}$$$$V2.0) , Hemolytic rate, 100 μg/mL reported as 4.04

---

Tested on: sheep red blood cells;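 note: hemolysis expressed in % from supernatant absorbance, with PBS-treated cells as 0% baseline and melittin as 100%, peptide mixed 1:1 with an 8% v/v erythrocyte suspension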
Test Parameters: 300 μg/mL peptide; sheep red blood cells in PBS, 37°C, 1 h, OD576, relative to melittin; mean ± SD, three repeats
Where a SMILES comes first, the peptide text is derived from it.
Observable: Hemolytic rate, 300 μg/mL (%)
Return type: number; implicit unit %.

Simply: CC[C@H](C)[C@H](NC(=O)[C@H](CCCNC(=N)N)NC(=O)[C@H](CCCNC(=N)N)NC(=O)[C@H](Cc1ccccc1)NC(=O)[C@H](CC(C)C)NC(=O)[C@H](CCCNC(=N)N)NC(=O)[C@@H](N)CCCNC(=N)N)C(=O)N[C@H](CC(C)C)C(=O)N[C@@H](CCCNC(=N)N)C(=O)N[C@@H](Cc1c[nH]c2ccccc12)C(=O)N[C@@H](CC(C)C)C(N)=O [RW-BP100-8D] (HELM PEPTIDE1{R.R.L.F.R.R.I.[dL].R.W.L.[am]}$$$$V2.0) , sheep red blood cells, Hemolytic rate, 300 μg/mL = 50.11

Simply: CC[C@H](C)[C@H](NC(=O)[C@H](CCCNC(=N)N)NC(=O)[C@H](CCCNC(=N)N)NC(=O)[C@@H](Cc1ccccc1)NC(=O)[C@H](CC(C)C)NC(=O)[C@H](CCCNC(=N)N)NC(=O)[C@@H](N)CCCNC(=N)N)C(=O)N[C@@H](CC(C)C)C(=O)N[C@@H](CCCNC(=N)N)C(=O)N[C@@H](Cc1c[nH]c2ccccc12)C(=O)N[C@@H](CC(C)C)C(N)=O [RW-BP100-4D] (HELM PEPTIDE1{R.R.L.[dF].R.R.I.L.R.W.L.[am]}$$$$V2.0) , sheep red blood cells, Hemolytic rate, 300 μg/mL = 48.55

Simply: CC[C@H](C)[C@H](NC(=O)[C@@H](CCCNC(=N)N)NC(=O)[C@H](CCCNC(=N)N)NC(=O)[C@H](Cc1ccccc1)NC(=O)[C@H](CC(C)C)NC(=O)[C@H](CCCNC(=N)N)NC(=O)[C@@H](N)CCCNC(=N)N)C(=O)N[C@@H](CC(C)C)C(=O)N[C@@H](CCCNC(=N)N)C(=O)N[C@@H](Cc1c[nH]c2ccccc12)C(=O)N[C@@H](CC(C)C)C(N)=O [RW-BP100-6D] (HELM PEPTIDE1{R.R.L.F.R.[dR].I.L.R.W.L.[am]}$$$$V2.0) , sheep red blood cells, Hemolytic rate, 300 μg/mL = 55.81

Simply: CC[C@H](C)[C@H](NC(=O)[C@H](CCCNC(=N)N)NC(=O)[C@@H](CCCNC(=N)N)NC(=O)[C@H](Cc1ccccc1)NC(=O)[C@H](CC(C)C)NC(=O)[C@H](CCCNC(=N)N)NC(=O)[C@@H](N)CCCNC(=N)N)C(=O)N[C@@H](CC(C)C)C(=O)N[C@@H](CCCNC(=N)N)C(=O)N[C@@H](Cc1c[nH]c2ccccc12)C(=O)N[C@@H](CC(C)C)C(N)=O [RW-BP100-5D] (HELM PEPTIDE1{R.R.L.F.[dR].R.I.L.R.W.L.[am]}$$$$V2.0) , sheep red blood cells, Hemolytic rate, 300 μg/mL = 51.41

Simply: CC[C@H](C)[C@H](NC(=O)[C@H](CCCNC(=N)N)NC(=O)[C@H](CCCNC(=N)N)NC(=O)[C@H](Cc1ccccc1)NC(=O)[C@H](CC(C)C)NC(=O)[C@@H](CCCNC(=N)N)NC(=O)[C@@H](N)CCCNC(=N)N)C(=O)N[C@@H](CC(C)C)C(=O)N[C@@H](CCCNC(=N)N)C(=O)N[C@@H](Cc1c[nH]c2ccccc12)C(=O)N[C@@H](CC(C)C)C(N)=O [RW-BP100-2D] (HELM PEPTIDE1{R.[dR].L.F.R.R.I.L.R.W.L.[am]}$$$$V2.0) , sheep red blood cells, Hemolytic rate, 300 μg/mL = 62.12

Where these numbers come from: paper PMC8822125
